Reported pKd values for the following binders.
study target: T1, human IL-33 (R&D Systems, #3625-IL-010/CF) (human, UniProt O95760 112-270)
T1 construct: Commercial recombinant protein; also called hIL-33; interleukin-33
T1 sequence (looked up): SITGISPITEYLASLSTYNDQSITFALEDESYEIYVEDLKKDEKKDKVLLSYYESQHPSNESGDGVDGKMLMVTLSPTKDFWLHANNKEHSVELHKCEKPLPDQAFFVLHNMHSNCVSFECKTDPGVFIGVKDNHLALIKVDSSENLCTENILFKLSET
experiment notes: SPR 25C pH7.4, mAb captured
A value of pKd is the negative decimal logarithm of a concentration given in moles per litre.

1) H4H9660P (antibody, human IgG4, V domains shown, Human IgG4 Fc (H4H)) VH: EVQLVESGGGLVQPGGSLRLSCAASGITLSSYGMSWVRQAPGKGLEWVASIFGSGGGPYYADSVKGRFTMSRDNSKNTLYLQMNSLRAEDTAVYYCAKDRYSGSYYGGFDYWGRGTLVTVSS VL: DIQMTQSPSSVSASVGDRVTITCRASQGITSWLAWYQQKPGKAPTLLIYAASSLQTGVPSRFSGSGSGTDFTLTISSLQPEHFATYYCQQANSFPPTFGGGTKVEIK    9.49
2) H4H9667P (antibody, human IgG4, V domains shown, Human IgG4 Fc (H4H)) VH: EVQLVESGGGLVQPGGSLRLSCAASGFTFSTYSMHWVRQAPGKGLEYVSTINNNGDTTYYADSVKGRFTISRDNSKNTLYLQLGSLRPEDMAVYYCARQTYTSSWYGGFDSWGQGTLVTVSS VL: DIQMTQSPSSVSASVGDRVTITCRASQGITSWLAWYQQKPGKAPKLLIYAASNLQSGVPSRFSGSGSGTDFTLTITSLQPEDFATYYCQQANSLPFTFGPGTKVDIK    9.40

Could you now consider this next binder?
For H4H9672P (antibody, human IgG4, V domains shown, Human IgG4 Fc (H4H)) VH: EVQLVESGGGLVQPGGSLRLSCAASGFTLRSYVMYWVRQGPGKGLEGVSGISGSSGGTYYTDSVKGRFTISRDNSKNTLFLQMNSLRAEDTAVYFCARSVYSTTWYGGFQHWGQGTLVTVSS VL: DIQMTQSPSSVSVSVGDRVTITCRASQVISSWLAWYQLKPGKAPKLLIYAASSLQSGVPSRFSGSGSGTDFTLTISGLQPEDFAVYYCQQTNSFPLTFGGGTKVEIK , what is its reported pKd? 9.28
